Some variants, each annotated with its measured protein stability index.
B1: SNAP91 (parent)
chain: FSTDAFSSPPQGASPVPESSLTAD

- Variants of: B1
- experimentSummary: protein stability index of a GFP-peptide fusion (GPS, HEK-293T) (PSI 1-6); higher = more stable;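 also: lentivirally expressed fusions sorted by FACS into six bins by GFP to DsRed ratio, PSI derived from sequencing read proportions per bin multiplied by bin number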
- assayConditions: c terminus: a fixed tail appended
reportedEndpoint: protein stability index

>>> reportedmeasurement("G12S")
2.79
>>> reportedmeasurement("S14A")
3.57
>>> reportedmeasurement("S20L")
2.72
>>> reportedmeasurement("S19P")
3.09
>>> reportedmeasurement("T3N")
4.84
>>> reportedmeasurement("S20I")
2.81
>>> reportedmeasurement("S14W")
2.69
>>> reportedmeasurement("P10L")
3.38
>>> reportedmeasurement("A5C")
4.07
>>> reportedmeasurement("S20E")
3.49
>>> reportedmeasurement("P17S")
3.86
>>> reportedmeasurement("V16E")
4
>>> reportedmeasurement("A23T")
3.35
>>> reportedmeasurement("T3C")
4.3
>>> reportedmeasurement("S14M")
2.95
>>> reportedmeasurement("F6M")
5.53
>>> reportedmeasurement("F1W")
5.19
>>> reportedmeasurement("A13M")
2.93
>>> reportedmeasurement("F6V")
5.59
>>> reportedmeasurement("Q11I")
3.25
>>> reportedmeasurement("D24F")
2.12
>>> reportedmeasurement("P10E")
3.23
>>> reportedmeasurement("E18D")
3.15
>>> reportedmeasurement("T22L")
3.63
>>> reportedmeasurement("S2T")
1.67
>>> reportedmeasurement("T22I")
3.21
>>> reportedmeasurement("P15M")
2.72
>>> reportedmeasurement("F6K")
5.38
>>> reportedmeasurement("S2C")
2.46
>>> reportedmeasurement("G12W")
2.32
>>> reportedmeasurement("V16C")
2.67
>>> reportedmeasurement("Q11R")
3.06
>>> reportedmeasurement("V16R")
3.22
>>> reportedmeasurement("P10A")
3.09
>>> reportedmeasurement("S2R")
5.05
>>> reportedmeasurement("S7G")
3.89
>>> reportedmeasurement("P9I")
2.43
>>> reportedmeasurement("P9M")
2.16
>>> reportedmeasurement("A5M")
4.56
>>> reportedmeasurement("T22H")
3.09
>>> reportedmeasurement("F6W")
1.86
>>> reportedmeasurement("T3P")
4.49
>>> reportedmeasurement("Q11E")
3.9
>>> reportedmeasurement("S14I")
2.89
>>> reportedmeasurement("A5S")
4.68
>>> reportedmeasurement("T3Q")
5.5
